List of chromatographic logP values.
Experiment: Determination of log P values by HPLC on a reverse phase column (C18), EEC-Directive 79/831 Annex V.A8 (Methods A, B, C)
Type: physicochemical
Settings: reverse phase C18 HPLC column, Method C (HPLC, reverse phase C18); read-out: LogP

>  <Smiles Structure>
CC(=O)Nc1cc(-c2c(-c3ccccc3)nn3cccnc23)ccn1

>  <chromatographic logP>
1.41

$$$$
>  <Smiles Structure>
C[Si]1(C)COc2c(-c3ccnc(N)c3)c(-c3cccs3)nn2C1

>  <chromatographic logP>
1.55

$$$$
>  <Smiles Structure>
CC(=O)N1CCCn2nc(-c3ccccc3)c(-c3ccnc(N(C(C)=O)C(C)=O)c3)c21

>  <chromatographic logP>
1.72

$$$$
>  <Smiles Structure>
CC(=O)Nc1cc(-c2c(-c3ccc(F)cc3)nn3c2NCCC3)ccn1

>  <chromatographic logP>
1.48

$$$$
>  <Smiles Structure>
CC(=O)N(C(C)=O)c1cc(-c2c(-c3ccccc3)nn3cccnc23)ccn1

>  <chromatographic logP>
2.13

$$$$
>  <Smiles Structure>
CC(=O)Nc1cc(-c2c(-c3ccccc3)nn3c2NCCC3)ccn1

>  <chromatographic logP>
1.13

$$$$
>  <Smiles Structure>
CC(=O)Nc1cc(-c2c(-c3ccc(F)cc3)nn3cccnc23)ccn1

>  <chromatographic logP>
1.47

$$$$

###

Experiment: Determination of log P values by HPLC on a reverse phase column (C18), EEC-Directive 79/831 Annex V.A8 (Methods A, B, C)
Type: physicochemical
Settings: reverse phase C18 HPLC column, pH 2.7, values in the synthesis examples; HPLC, reverse phase C18; read-out: log P (pH 2.7)
Mark True for chromatographic logP under 3, False if at or over.

>  <Molecule>
CC1CCOc2c(B3OC(C)(C)C(C)(C)O3)c(-c3ccc(F)cc3)nn21 (stereo not shown) [[III-1]]

>  <Assigned Class>
False

$$$$
>  <Molecule>
CC(=O)N1CCCn2nc(-c3ccccc3)c(-c3ccnc(N(C(C)=O)C(C)=O)c3)c21

>  <Assigned Class>
True

$$$$
>  <Molecule>
Nc1cc(-c2c(-c3ccccc3)nn3cccnc23)ccn1 [[II-a-1]]

>  <Assigned Class>
True

$$$$
>  <Molecule>
C[Si]1(C)COc2c(Br)c(-c3ccc(F)cc3)nn2C1 [[IV-5]]

>  <Assigned Class>
False

$$$$
>  <Molecule>
Fc1ccc(-c2cc3n(n2)CCS3)cc1 [[VI-6]]

>  <Assigned Class>
True

$$$$
>  <Molecule>
CC(=O)Nc1cc(-c2c(-c3ccc(F)cc3)nn3cccnc23)ccn1

>  <Assigned Class>
True

$$$$
>  <Molecule>
Nc1cc(-c2c(-c3ccc(F)cc3)nn3c2OCCC3)ccn1 [[II-2]]

>  <Assigned Class>
True

$$$$
>  <Molecule>
O=C(Nc1cc(-c2c(-c3ccc(F)cc3)nn3c2OCC3)ccn1)C1CC1

>  <Assigned Class>
True

$$$$

###

Assay: Determination of log P values by HPLC on a reverse phase column (C18), EEC-Directive 79/831 Annex V.A8 (Methods A, B, C)
Assay type: physicochemical
Conditions: reverse phase C18 HPLC column, pH 2.7, values in the synthesis examples; HPLC, reverse phase C18; read-out: log P (pH 2.7)
Method: (§1) Note on the determination of the log P values and mass detection: The stated log P values were determined in accordance with EEC-Directive 79/831 Annex V.A8 by HPLC (High Performance Liquid Chromatography) on a reverse phase column (C18). […] as §1
Measurement Name: chromatographic logP

>  <Compound>
CCc1coc2c(Br)c(-c3ccc(F)cc3)nn12 [[IV-a-2]]

>  <Readout Value>
4.18

$$$$
>  <Compound>
Fc1ccc(-c2cc3ncccn3n2)cc1 [[XXXVIII-1]]

>  <Readout Value>
2.17

$$$$
>  <Compound>
Fc1ccc(-c2cc3n(n2)CCCO3)c(F)c1 [[VI-3]]

>  <Readout Value>
2.38

$$$$
>  <Compound>
Fc1ccc(-c2nn3c(c2Br)OCCC3)cc1 [[IV-2]]

>  <Readout Value>
2.86

$$$$
>  <Compound>
C[Si]1(C)COc2c(Br)c(-c3cccs3)nn2C1 [[IV-12]]

>  <Readout Value>
3.58

$$$$
>  <Compound>
c1ccc(-c2cc3n(n2)CCCO3)cc1 [[VI-1]]

>  <Readout Value>
2.04

$$$$

###

System: Pyrenophora teres
Test: Example D: Pyrenophora test (barley) / preventive
Format: in vivo
Settings: 500 ppm of active ingredient; barley, preventive spray; evaluated 7-9 days after inoculation

>  <Compound>
O=C(Nc1cc(-c2c(-c3ccc(F)cc3)nn3c2OCCC3)ccn1)C1CC1

>  <efficacy, %>
100

$$$$
>  <Compound>
CC(=O)Nc1cc(-c2c(-c3ccccc3)nn3c2NCCC3)ccn1

>  <efficacy, %>
90

$$$$
>  <Compound>
O=C(Nc1cc(-c2c(-c3ccc(F)cc3)nn3c2OCC3)ccn1)C1CC1

>  <efficacy, %>
100

$$$$
>  <Compound>
CC(=O)Nc1cc(-c2c(-c3ccc(F)cc3)nn3c2NCCC3)ccn1

>  <efficacy, %>
80

$$$$
>  <Compound>
CC(=O)N(C(C)=O)c1cc(-c2c(-c3ccccc3)nn3cccnc23)ccn1

>  <efficacy, %>
95

$$$$
>  <Compound>
CCC(=O)Nc1cc(-c2c(-c3ccc(F)cc3)nn3c2OCCC3C)ccn1 (stereo not drawn)

>  <efficacy, %>
100

$$$$

###

Experiment: Determination of log P values by HPLC on a reverse phase column (C18), EEC-Directive 79/831 Annex V.A8 (Methods A, B, C)
Type: physicochemical
Settings: reverse phase C18 HPLC column, pH 2.7, minor isomer of the diastereoisomer mixture; read-out: Log P (pH 2.7), minor isomer
Measurement Name: chromatographic logP

>  <Molecule>
CC1Oc2c(Br)c(-c3ccc(F)cc3)nn2C1C (stereo not shown) [[IV-8]]

>  <Readout Value>
3.46

$$$$

###

Experiment: Determination of log P values by HPLC on a reverse phase column (C18), EEC-Directive 79/831 Annex V.A8 (Methods A, B, C)
Format: physicochemical
Conditions: reverse phase C18 HPLC column, pH 2.3, intermediates of formula [VI]; HPLC, reverse phase C18; read-out: LogP (pH 2.3)
Measurement Name: chromatographic logP

>  <Compound>
C[Si]1(C)COc2cc(-c3ccc(F)cc3)nn2C1 [[VI-5]]

>  <Readout Value>
3.11

$$$$
>  <Compound>
CC1CCOc2cc(-c3ccc(F)cc3)nn21 (centres unmarked) [[VI-4]]

>  <Readout Value>
2.65

$$$$
>  <Compound>
Fc1ccc(-c2cc3n(n2)CCCO3)cc1 [[VI-2]]

>  <Readout Value>
2.18

$$$$
>  <Compound>
CC1(C)COc2cc(-c3ccc(F)cc3)nn2C1 [[VI-10]]

>  <Readout Value>
2.96

$$$$
>  <Compound>
CC1(C#N)COc2cc(-c3ccc(F)cc3)nn2C1 (centres unmarked) [[VI-11]]

>  <Readout Value>
2.39

$$$$
>  <Compound>
Fc1ccc(-c2cc3n(n2)CCS3)cc1 [[VI-6]]

>  <Readout Value>
2.53

$$$$
>  <Compound>
Fc1ccc(-c2cc3n(n2)CCCO3)c(F)c1 [[VI-3]]

>  <Readout Value>
2.38

$$$$
>  <Compound>
c1ccc(-c2cc3n(n2)CCCO3)cc1 [[VI-1]]

>  <Readout Value>
2.04

$$$$

###

List of chromatographic logP values.
Assay: Determination of log P values by HPLC on a reverse phase column (C18), EEC-Directive 79/831 Annex V.A8 (Methods A, B, C)
Assay type: physicochemical
Conditions: reverse phase C18 HPLC column, pH 2.7, values in the synthesis examples; HPLC, reverse phase C18; read-out: log P (pH 2.7)
Measurement Name: chromatographic logP

>  <Molecule>
Fc1ccc(-c2cc3n(n2)CCCO3)cc1 [[VI-2]]

>  <Readout Value>
2.18

$$$$
>  <Molecule>
CC1(C#N)COc2cc(-c3ccc(F)cc3)nn2C1 (stereo not shown) [[VI-11]]

>  <Readout Value>
2.39

$$$$
>  <Molecule>
Cc1coc2c(Br)c(-c3ccc(F)cc3)nn12 [[IV-a-1]]

>  <Readout Value>
3.56

$$$$
>  <Molecule>
Fc1ccc(-c2nn3c(c2Br)OCCC3)c(F)c1 [[IV-3]]

>  <Readout Value>
2.7

$$$$
>  <Molecule>
CCC(=O)Nc1cc(-c2c(-c3ccc(F)cc3)nn3c2OCCC3C)ccn1 (stereo not shown) [Example 63]

>  <Readout Value>
1.61

$$$$
>  <Molecule>
CC1(C)COc2cc(-c3ccc(F)cc3)nn2C1 [[VI-10]]

>  <Readout Value>
2.96

$$$$
>  <Molecule>
CC(C)(C)OC(=O)Nc1cc(-c2c(-c3ccccc3)nn3cccnc23)ccn1 [[I-i-2]]

>  <Readout Value>
2.32

$$$$
>  <Molecule>
CC(=O)Nc1cc(-c2c(-c3ccccc3)nn3cccnc23)ccn1 [Example 51]

>  <Readout Value>
1.41

$$$$
>  <Molecule>
CC1CCOc2cc(-c3ccc(F)cc3)nn21 (stereo not shown) [[VI-4]]

>  <Readout Value>
2.65

$$$$
>  <Molecule>
CC(=O)N(C(C)=O)c1cc(-c2c(-c3ccccc3)nn3cccnc23)ccn1 [Example 56]

>  <Readout Value>
2.13

$$$$
